// provenance: paper PMC12332667

Listed here are compounds together with their documented MBC.
system: S. intemrdius c.i.; assay: MIC/MBC broth microdilution, S. intermedius; assay type: cell-based, Staphylococcus intermedius; conditions: H2O
Supply the numeric figure in µg/mL, leaving out any unit text.

smiles_input: CC(C)[C@@H](CNC(=O)C(=Cc1ccccc1)c1ccccc1)NC(=O)[C@H](Cc1c[nH]cn1)NC(=O)[C@H](CCCCNC(=N)N)NC(=O)OCc1ccccc1
unit_text: µg/mL
recorded_result: 32
//
smiles_input: CC(C)[C@@H](CNC(=O)C(=Cc1ccccc1)c1ccccc1)NC(=O)[C@H](CCCNC(=N)N)NC(=O)[C@H](CCCCNC(=N)N)NC(=O)OCc1ccccc1
unit_text: µg/mL
recorded_result: 16
//
smiles_input: CC(C)[C@@H](CNC(=O)C(=Cc1ccccc1)c1ccccc1)NC(=O)[C@H](CCCNC(=N)N)NC(=O)[C@H](CCCNC(=N)N)NC(=O)OCc1ccccc1
unit_text: µg/mL
recorded_result: 32
//
smiles_input: Cc1ccccc1COC(=O)N[C@@H](CCCNC(=N)N)C(=O)N[C@@H](CC(C)C)C(=O)N[C@H](CNC(=O)/C=C/c1ccccc1)C(C)C
unit_text: µg/mL
recorded_result: 16

Moving on to the next compound.
Return the recorded MBC value; entry: "CC(C)C[C@H](NC(=O)[C@H](CCCNC(=N)N)NC(=O)OCc1ccccc1)C(=O)N[C@H](CNC(=O)C(=Cc1ccccc1)c1ccccc1)C(C)C"
32
